tested on: Leishmania donovani; experiment: Leishmania intramacrophage assay; type: functional, organism-based; parameters: scale not given: in the data most compounds retested in dose-response had high values; details: 30.3 µM; […]
Among all 69,000 compounds or so, about 1,000 (1.4%) showed an effect of 50% or more. The sample as a whole holds a higher share of strong results than the screen did.
reported-endpoint: Percent Effect
Answer format: number, then unit.

Which Percent Effect value belongs to "CC(C)N(C)Cc1cncc2c1CCN(Cc1ccoc1)C2.Cl.Cl.Cl" ? 28.71%

Which Percent Effect value belongs to "CCCn1cc(C(=O)NCCS(N)(=O)=O)c2ccccc21" ? 23.59%

Which Percent Effect value belongs to Cl.Cl.Fc1ccc2c(c1)C1(CCNCC1)CC2NC1CC1 (stereo unspecified) ? 27.52%

Which Percent Effect value belongs to "COCCn1cc(C(=O)NCCS(N)(=O)=O)c2ccccc21" ? 59.49%

Which Percent Effect value belongs to "CCCc1nc2c(c(C)c(C)n2CCN(C)C)c(N)c1CC" ? 99.96%

Which Percent Effect value belongs to "O=C(O)C(F)(F)F.O=C(O)C(F)(F)F.c1cncc(COC[C@@H]2CCC[C@]23CNCCO3)c1" ? 27.95%

Data provenance is ChEMBL document CHEMBL3988442.
